Data origin, for the record: patent US20240409663A1

Measured EC50, listed per entry.
- Experimental System: T1, human GPC3 on cells (human, UniProt P51654 25-554)
- T1 construct: whole, on cells; over-expressed on CHOK1 cells or endogenous on HEPG2, Hep3B and Huh-7 hepatocellular carcinoma cells; the cell line is named under assay; also called GPC3-CHOK1 cells; human GPC3 over-expressed CHOK1 cells
- Protocol Notes: FACS, GPC3-CHOK1 cells
I only need the number, in mg/L, no unit after it.

Before answering, review these 5 worked examples.
52H5D3B8-5# chimeric mAb (antibody, V domains shown, CDR3 mutant of the 52H5D3B8 chimeric mAb (human IgG1)) VH: QVQLQQSGAELVRPGASVKLSCKALGYTFTDYEMHWVKQTPVHGLEWIGAIHPGSGGTAYNQKFKGKATLTADKFSSTGYMELSSLTSEDSAVYYCTRYYSFAYWGQGTLVTVSA VL: DVVMTQTPLSLPVSLGDQASISCRSSQSLVHSNGNTYLQWYLQKPGQSPKLLIYKVSNRFSGVPDRFSGSGSGTDFILKISRVEAEDLGVYFCSQSIHVPYTFGGGTKLEIK; 0.405
52H5D3B8-15# chimeric mAb (antibody, V domains shown, CDR3 mutant of the 52H5D3B8 chimeric mAb (human IgG1)) VH: QVQLQQSGAELVRPGASVKLSCKALGYTFTDYEMHWVKQTPVHGLEWIGAIHPGSGGTAYNQKFKGKATLTADKFSSTGYMELSSLTSEDSAVYYCTRYYSFAYWGQGTLVTVSA VL: DVVMTQTPLSLPVSLGDQASISCRSSQSLVHSNGNTYLQWYLQKPGQSPKLLIYKVSNRFSGVPDRFSGSGSGTDFILKISRVEAEDLGVYFCFQSTHVPYTFGGGTKLEIK; 0.15
52H5D3B8-12# chimeric mAb (antibody, V domains shown, CDR3 mutant of the 52H5D3B8 chimeric mAb (human IgG1)) VH: QVQLQQSGAELVRPGASVKLSCKALGYTFTDYEMHWVKQTPVHGLEWIGAIHPGSGGTAYNQKFKGKATLTADKFSSTGYMELSSLTSEDSAVYYCTRYYSYAYWGQGTLVTVSA VL: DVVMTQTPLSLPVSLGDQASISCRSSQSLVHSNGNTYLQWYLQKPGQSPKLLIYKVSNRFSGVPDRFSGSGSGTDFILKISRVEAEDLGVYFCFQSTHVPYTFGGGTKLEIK; 0.235
52H5D3B8-4# chimeric mAb (antibody, V domains shown, CDR3 mutant of the 52H5D3B8 chimeric mAb (human IgG1)) VH: QVQLQQSGAELVRPGASVKLSCKALGYTFTDYEMHWVKQTPVHGLEWIGAIHPGSGGTAYNQKFKGKATLTADKFSSTGYMELSSLTSEDSAVYYCTRFYSYAYWGQGTLVTVSA VL: DVVMTQTPLSLPVSLGDQASISCRSSQSLVHSNGNTYLQWYLQKPGQSPKLLIYKVSNRFSGVPDRFSGSGSGTDFILKISRVEAEDLGVYFCSQSTHVPYTFGGGTKLEIK; 0.0986
52H5D3B8-14# chimeric mAb (antibody, V domains shown, CDR3 mutant of the 52H5D3B8 chimeric mAb (human IgG1)) VH: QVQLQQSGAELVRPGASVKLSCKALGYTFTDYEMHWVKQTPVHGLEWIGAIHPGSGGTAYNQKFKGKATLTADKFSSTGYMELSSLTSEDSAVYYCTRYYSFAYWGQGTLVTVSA VL: DVVMTQTPLSLPVSLGDQASISCRSSQSLVHSNGNTYLQWYLQKPGQSPKLLIYKVSNRFSGVPDRFSGSGSGTDFILKISRVEAEDLGVYFCFQSIHVPYTFGGGTKLEIK; 0.0895

Query binder follows.
Ask: Any idea what its EC50 is? The binder is 52H5D3B8-9# chimeric mAb (antibody, V domains shown, CDR3 mutant of the 52H5D3B8 chimeric mAb (human IgG1)) VH: QVQLQQSGAELVRPGASVKLSCKALGYTFTDYEMHWVKQTPVHGLEWIGAIHPGSGGTAYNQKFKGKATLTADKFSSTGYMELSSLTSEDSAVYYCTRFYSFAYWGQGTLVTVSA VL: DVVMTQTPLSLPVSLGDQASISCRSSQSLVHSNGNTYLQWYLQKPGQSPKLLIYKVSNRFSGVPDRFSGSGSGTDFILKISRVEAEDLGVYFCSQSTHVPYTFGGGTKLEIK
Result: 0.247
